Test system: ATP;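 also: ATP exposure 15 min at 22 °C before imaging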
ASSAY METHOD TEXT: switch fluorescence ratio, 500 uM ATP over buffer (Cy3 cluster intensity, sum of 5 cycles each) (fold (ratio)); higher = stronger signal-on switching upon ATP binding; sequences stand for … in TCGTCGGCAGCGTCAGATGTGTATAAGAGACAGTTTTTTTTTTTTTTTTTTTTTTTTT…TC
TEST CONTEXT: aptamer strand: ATP DNA aptamer (quencher-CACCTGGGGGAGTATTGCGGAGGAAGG + anchor), 100 nM annealed; ATP concentration: 500 uM
For each record, write down the corresponding switch fluorescence ratio.
One number for each entry.

Below, 5 sequences whose answers are already recorded.
1) GGTTGCATCG :: 0.986
2) CGGGGCATGG :: 1
3) AATTAATATT :: 0.988
4) TGCTGTACGA :: 1.11
5) TTGCTCACTT :: 1.04

Hey, can you go through the list below and give me switch fluorescence ratio for every item?
1. AGCCACATGG
2. ATGGGACTTT
3. GATTTTACTT
4. TATGGTGAGG

[0.98, 1.02, 1.03, 0.976]

---

System: ATP;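 also: ATP exposure 15 min at 22 °C before imaging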
ASSAY METHOD TEXT: switch fluorescence ratio, 500 uM ATP over buffer (Cy3 cluster intensity, sum of 5 cycles each) (fold (ratio)); higher = stronger signal-on switching upon ATP binding; sequences stand for … in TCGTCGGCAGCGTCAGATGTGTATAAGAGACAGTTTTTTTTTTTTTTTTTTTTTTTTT…TC
TEST CONTEXT: aptamer strand: ATP DNA aptamer (quencher-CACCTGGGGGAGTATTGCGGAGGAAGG + anchor), 100 nM annealed; ATP concentration: 500 uM
OBSERVATION TYPE: switch fluorescence ratio
Numbers only.

Worked set:
1) ATTAATGCGG :: 1.07
2) TGGCCTAGTG :: 1
3) CATGGTGGGA :: 0.969
4) GTGTATATGG :: 0.995
5) AATCTGTGTG :: 0.963

Query TTTTTGCATC on ATP; switch fluorescence ratio returned: 1.2

---

System: ATP;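 also: ATP exposure 15 min at 22 °C before imaging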
ASSAY METHOD TEXT: switch fluorescence ratio, 500 uM ATP over buffer (Cy3 cluster intensity, sum of 5 cycles each) (fold (ratio)); higher = stronger signal-on switching upon ATP binding; sequences stand for … in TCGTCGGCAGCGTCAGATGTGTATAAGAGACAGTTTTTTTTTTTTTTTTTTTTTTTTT…TC
TEST CONTEXT: aptamer strand: ATP DNA aptamer (quencher-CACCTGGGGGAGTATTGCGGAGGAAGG + anchor), 100 nM annealed; ATP concentration: 500 uM
OBSERVATION TYPE: switch fluorescence ratio
Give bare numbers.

1. GTTTTCGGTA :: 0.98
2. TGGCGGGGTC :: 0.999
3. CGATATTGAT :: 1.03
4. AAACCCGATA :: 1.05
5. TTTATGAAGA :: 0.985

Each sequence below has a reported value. Please supply its switch fluorescence ratio.
1. ATATCCGACA
2. TAGGACGTGC
3. GTAGTAATTG
4. TAGTATTTAT
5. GGAAGTTGGG
6. CCTGTAAATG

1: 1.05; 2: 0.963; 3: 1.07; 4: 1.02; 5: 0.98; 6: 1.15

The following sequences each have a reported value; give each one's switch fluorescence ratio.
1. TAGGAACAGC
2. TTATAGTCAT
3. CGGAGCCAGG
4. GCATAATGAT

0.98
0.965
1.43
1

For each of the sequences below, note its switch fluorescence ratio.
1. ATGTTCGTCA
2. GATATTGTGG
3. GAATAAGCAA
4. AGTGTGTTAT

0.988
0.987
1.56
0.974

Each sequence below has a recorded value; state its switch fluorescence ratio.
1. GATTTATAAT
2. TGGGGCTATT
3. GGTGGGGCAG

1. 1.01
2. 1.02
3. 0.964

Provide switch fluorescence ratio for all items below, preserving their order.
1. ACGATAGGGC
2. CGTGTTGAGG
3. TGAGGCAAGG
4. TCATTATGAA
5. GATGGACTAA
6. TTGGGCCAGG
7. GTGTGGATCA

1. 1.06
2. 0.991
3. 1.69
4. 0.987
5. 1.02
6. 1.14
7. 0.987

Batch: switch fluorescence ratio for all items listed.
1. GGCATGTGGT
2. TGAGATTAAA
3. CTTATTTCGT

1: 1.03; 2: 1.01; 3: 1

Go through the items and report each one's switch fluorescence ratio.
1. AATAAAGACG
2. TAATCTCCGG
3. TTTTCCTCGC
4. CGGAAGTATG
5. GGGGACACAG
6. GACTTAGAAT

[0.952, 1.04, 2.86, 1.04, 0.979, 1]

I need switch fluorescence ratio for every entry listed below, if you could help.
1. GTTTGAGGAG
2. CTCATGGGGA
3. AAGTAGTTTT
4. TGATTTTACC
5. GGGGGTCGGG
6. ACGCTAGGGC
7. GTTTTTTAGT

1. 0.986
2. 1.04
3. 0.985
4. 1.06
5. 1
6. 1.16
7. 0.988

---

System: ATP;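 also: ATP exposure 15 min at 22 °C before imaging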
ASSAY METHOD TEXT: switch fluorescence ratio, 500 uM ATP over buffer (Cy3 cluster intensity, sum of 5 cycles each) (fold (ratio)); higher = stronger signal-on switching upon ATP binding; sequences stand for … in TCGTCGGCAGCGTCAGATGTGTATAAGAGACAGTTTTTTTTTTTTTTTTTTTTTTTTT…TC
TEST CONTEXT: aptamer strand: ATP DNA aptamer (quencher-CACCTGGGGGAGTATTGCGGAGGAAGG + anchor), 100 nM annealed; ATP concentration: 500 uM
Assign switch fluorescence ratio to each entry below.
Numbers only.

1. CATTTTATAA :: 0.999
2. ATTAGTAAGG :: 1.01
3. TTGAGACTAG :: 1
4. GCTATGAAAG :: 0.995
5. GGGTTCAAAG :: 0.982
6. GGGCGGAGCG :: 0.999

Go through the list and state switch fluorescence ratio for each entry.
1. GGAAGGTAAT
2. CGGTCCGGTT
3. CTCATGAAAC

1. 1
2. 0.986
3. 1.01

The following sequences each have a reported value; give each one's switch fluorescence ratio.
1. ATCTTCGGGC
2. ATGTTAAAAG
3. GTTTGAGGCG
4. TCATGGGATG
5. GTTCAAGGGG
6. GTTGGTGGGA
7. ATAAAAAGCA

0.987
1.01
1
1.02
0.983
0.973
0.995

---

System: ATP;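 also: ATP exposure 15 min at 22 °C before imaging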
ASSAY METHOD TEXT: switch fluorescence ratio, 500 uM ATP over buffer (Cy3 cluster intensity, sum of 5 cycles each) (fold (ratio)); higher = stronger signal-on switching upon ATP binding; sequences stand for … in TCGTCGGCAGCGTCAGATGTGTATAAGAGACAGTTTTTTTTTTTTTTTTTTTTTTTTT…TC
TEST CONTEXT: aptamer strand: ATP DNA aptamer (quencher-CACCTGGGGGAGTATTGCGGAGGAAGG + anchor), 100 nM annealed; ATP concentration: 500 uM
OBSERVATION TYPE: switch fluorescence ratio
Answers are plain numbers.

1. ATCTGCTAGG :: 1.01

// each listed sequence needs a value for switch fluorescence ratio
1. TACGAGTTCT
2. GGGGAAGTAT
3. CGCTTATGGA
4. GGTTTAATTA
5. GTGGGGGTTA
6. ATAAGACTGG

1. 0.984
2. 0.985
3. 1
4. 0.972
5. 0.996
6. 0.982

For every item in the list below, what is its measured switch fluorescence ratio?
1. CATAGATGGG
2. AATTTTGGTG
3. AGCTGAGTCT
4. GGTTGTTAGG
5. CAATCTTGGA

1.01
0.998
1.02
0.98
1

---

Test system: ATP;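 also: ATP exposure 15 min at 22 °C before imaging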
ASSAY METHOD TEXT: switch fluorescence ratio, 500 uM ATP over buffer (Cy3 cluster intensity, sum of 5 cycles each) (fold (ratio)); higher = stronger signal-on switching upon ATP binding; sequences stand for … in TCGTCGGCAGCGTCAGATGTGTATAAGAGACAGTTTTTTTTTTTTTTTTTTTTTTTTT…TC
TEST CONTEXT: aptamer strand: ATP DNA aptamer (quencher-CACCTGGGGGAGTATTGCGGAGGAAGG + anchor), 100 nM annealed; ATP concentration: 500 uM
OBSERVATION TYPE: switch fluorescence ratio
Answers are plain numbers.

# return switch fluorescence ratio for each item in the list
1. CGTCCTATTT
2. TCGAGGGAGT

1: 1.01; 2: 1.02

Hi team, please reply with switch fluorescence ratio for each item in this list.
1. CTTATAGTTT
2. ACTGAGGATA
3. GTGGCAGGTA
4. AGTTTTTCAA
5. GGATGCTAGA
6. TGGGTAAAGG
7. CAGTTTTACA

[1.01, 1, 1, 0.998, 0.996, 0.956, 1.05]

Could I get switch fluorescence ratio for every one of these entries?
1. GGTCGGTATT
2. CACTGGGGGT
3. AATACCGTTT
4. CATGGTAGAG

1: 1.08; 2: 1.03; 3: 1.05; 4: 0.975

The origin of these recorded values is the supplement of paper PMC10126150.
